- Tested on: SN12C
- PROCEDURE_TEXT: NCI tumour cell line growth inhibition, 48 h
Calls of active or inactive are those of the source. No stated cut-off is given here; in the data, active = GI50 up to about 1.1 µM and inactive = higher.
The entries below come with measured GI50 values attached.

In the examples that follow, each entry is paired with its recorded GI50.
{"COMPOUND": "CC(C)(C)N1CC2(CCCCC2)C1=O", "TARGET_OF_ASSAY": "SN12C", "QUANTITY_KIND": "GI50", "RESULT": "> 100 µM (inactive)"}
{"COMPOUND": "CN(Cc1ccccc1)Cn1ccnc1", "TARGET_OF_ASSAY": "SN12C", "QUANTITY_KIND": "GI50", "RESULT": "95.1 µM (inactive)"}
{"COMPOUND": "Cc1nn(C(=O)c2ccc(Cl)cc2)c2c1C(c1ccccc1)SC(=N)N2 (stereo not drawn)", "TARGET_OF_ASSAY": "SN12C", "QUANTITY_KIND": "GI50", "RESULT": "> 10 µM (inactive)"}

# GI50 lookup, item C[N+](C)(C)CC1CCCC(C[N+](C)(C)C)C1=O (stereo not drawn) 1.19 µM (inactive)

# GI50 lookup, item CC1=Nc2ccccc2OC(C)=C1/N=N/c1ccc2[nH]c(C)nc2c1 84.7 µM (inactive)

# GI50 lookup, item COC(=O)c1ccc(NCc2cc(O)ccc2O)cc1 16.5 µM (inactive)

====

- Test system: SF-295
- PROCEDURE_TEXT: NCI tumour cell line growth inhibition, 48 h
Activity calls are given as the source filed them. No stated cut-off is given here; in the data, active = GI50 up to about 1.1 µM and inactive = higher.
Please state which outcome applies, choosing from true for active, false for inactive

{"SMILES_NOTATION": "N#Cc1ccc(/N=C(/NCC(=O)O)Nc2cccc3ccccc23)cc1", "CAT": "false"}
{"SMILES_NOTATION": "Cn1c2c(c3ccccc31)CCN(CCCCN1CCc3c(n(C)c4ccccc34)C1=O)C2", "CAT": "false"}
{"SMILES_NOTATION": "Cc1cnc2[nH]c(-c3cccc(Cl)c3)cc(=O)c2c1", "CAT": "true"}

Turning now to a further molecule:
Which outcome was assigned to COc1cccc(-c2nnc3c(-c4ccccc4)nc4ccccc4n23)c1 in this test? false

====

- System: DU-145
- PROCEDURE_TEXT: NCI tumour cell line growth inhibition, 48 h
Activity calls are given as the source filed them. Rule as the data show it: active = GI50 up to about 1.1 µM and inactive = higher.
Please state which outcome applies, choosing from active, inactive

{"MOLECULE": "Oc1ccc(/C=C/c2ccc3cccc(O)c3n2)cc1O", "TARGET_OF_ASSAY": "DU-145", "CAT": "inactive"}
{"MOLECULE": "COC(=O)c1ccc(NCC2=CC(=O)C=CC2=O)cc1", "TARGET_OF_ASSAY": "DU-145", "CAT": "inactive"}
{"MOLECULE": "O=C1CCCC(=O)N1n1c(Cc2ccc(Cl)cc2)n[nH]c1=O", "TARGET_OF_ASSAY": "DU-145", "CAT": "inactive"}

Which outcome was assigned to COc1ccc(/C=C2\OC(=O)C(Cl)=C2c2ccc(OC)cc2)cc1 in this test? inactive

Which outcome was assigned to CC(C)CC(NC(O)[BH2-][N+](C)(C)C)C(=O)NC(Cc1ccccc1)C(=O)N[C@H]1c2ccsc2/C(=N/O)[C@H]1O (some centres not stated) in this test? inactive

Which outcome was assigned to Cc1cnc2sn(-c3ccc(Br)cc3)c(=O)c2c1 in this test? inactive

Which outcome was assigned to O=C(Cc1ccccc1)NN1C(=O)/C(=C\c2ccccc2)S/C1=N\c1ccccc1 in this test? inactive

Which outcome was assigned to CC(C)(C)OC(=O)NCCCNC1(c2cc3ccccc3s2)CCCCC1 in this test? inactive

Which outcome was assigned to c1ccc(C2(c3cc4ccccc4[nH]3)OCCO2)cc1 in this test? inactive

Which outcome was assigned to O=C1C(NCCF)=C(Cl)C(=O)c2ncccc21 in this test? active

Which outcome was assigned to CCOC(=O)CN1C(=O)c2ccc(NC(=O)C(=O)O)cc2S1(=O)=O in this test? inactive

Which outcome was assigned to Cc1cc(-c2[nH]c(C(=O)O)cc2I)on1 in this test? inactive

Which outcome was assigned to CCN1CSC(=S)N(CC)C1 in this test? inactive

Which outcome was assigned to Cc1nnc(Nc2ccccc2)o1 in this test? inactive

Which outcome was assigned to O=C(O)CSc1n[nH]c(=O)[nH]c1=O in this test? inactive

Which outcome was assigned to CSC12c3cc(C)n(-c4ccc([N+](=O)[O-])cc4)c3CC(C)(C)CN1C(=O)C2Oc1ccccc1 (configuration not stated) in this test? inactive

Which outcome was assigned to CC(=O)Nc1ccccc1SCCSSCCSc1ccccc1NC(C)=O in this test? inactive

====

- Tested on: A549
- PROCEDURE_TEXT: NCI tumour cell line growth inhibition, 48 h
Active and inactive are the calls of the source. No stated cut-off is given here; in the data, active = GI50 up to about 1.1 µM and inactive = higher.
Please state which outcome applies, choosing from active, inactive

Field: example entries. Status: answers known.
{"MOLECULE": "COC(=O)C12OCC34C(CC5C(C)=CC(=O)C(O)C5(C)C3C(O)C1O)OC(=O)C(OC(=O)CC(C)C)C24 (stereo unspecified)", "CAT": "active"}
{"MOLECULE": "COc1ccc2c(c1OC)CN1CCc3cc4c(cc3C1C2)OCO4 (stereo unspecified) [TETRAHYDROBERBERINE]", "CAT": "inactive"}
{"MOLECULE": "Cc1ccc(S(=O)(=O)Oc2nc3ccccc3nc2OS(=O)(=O)c2ccc(C)cc2)cc1", "CAT": "inactive"}
{"MOLECULE": "CC(C)[C@@H](COC(C)(C)C)/N=C/N1CCc2c([nH]c3ccccc23)C1", "CAT": "inactive"}
{"MOLECULE": "O=C(/N=c1/[nH]/c(=N/C(=O)c2ccccc2)ss1)c1ccccc1", "CAT": "inactive"}

Turning now to a further molecule:
Which outcome was assigned to Cc1nc(Nc2ccccc2)sc1C(=O)NNc1ccc([N+](=O)[O-])cc1[N+](=O)[O-] in this test? inactive

====

- System: UACC-62
- PROCEDURE_TEXT: NCI tumour cell line growth inhibition, 48 h
The source made the active and inactive calls. No stated cut-off is given here; in the data, active = GI50 up to about 1.1 µM and inactive = higher.
QUANTITY_KIND: GI50

In the examples that follow, each entry is paired with its recorded GI50.
{"SMILES_NOTATION": "O=C1c2ccccc2C(=O)N1CCc1nc(-c2ccccc2)c[nH]1", "GI50": "> 100 µM (inactive)"}
{"SMILES_NOTATION": "CSc1c(C(=O)Nc2ccc(C)cc2)c(N)n(N)c(=O)c1C#N", "GI50": "> 100 µM (inactive)"}

As a next step, examine the molecule that follows.
# GI50 lookup, item O=C(/C=C1\N=C(c2ccccc2)N(c2ccc3c(c2)Sc2cc(N4C(=O)/C(=C/C(=O)/C=C/c5ccccc5)N=C4c4ccccc4)ccc2N3)C1=O)/C=C/c1ccccc1 18.2 µM (inactive)

====

- Tested on: ACHN
- PROCEDURE_TEXT: NCI tumour cell line growth inhibition, 48 h
Active and inactive are the calls of the source. No stated cut-off is given here; in the data, active = GI50 up to about 1.1 µM and inactive = higher.
QUANTITY_KIND: GI50

In the examples that follow, each entry is paired with its recorded GI50.
{"COMPOUND": "COc1cc(O)c2c(=O)c3ccccc3n(C)c2c1", "GI50": "14 µM (inactive)"}
{"COMPOUND": "CCP(C)(C)=O", "GI50": "> 100 µM (inactive)"}
{"COMPOUND": "COC1/C=C\\C=C(/C)C(=O)NC2=CC(=O)C(NCCCl)=C(CC(C)CC(OC)C(O)C(C)/C=C(/C)C1OC(N)=O)C2=O (configuration not stated)", "GI50": "0.281 µM (active)"}
{"COMPOUND": "C[N+](C)(C)CC(=O)N/N=C/c1oc(-c2cccc([N+](=O)[O-])c2)c(-c2cccc([N+](=O)[O-])c2)c1[N+](=O)[O-]", "GI50": "> 100 µM (inactive)"}

Request: GI50, test system ACHN, entry COC(NC(=O)Nc1ccc(C)cc1)(C(F)(F)F)C(F)(F)F 24 µM (inactive)

Request: GI50, test system ACHN, entry Cc1cc2c(c(=O)o1)C1=S(SC(c3ccccc3)=C1)S2 (configuration not stated) 34.7 µM (inactive)

Request: GI50, test system ACHN, entry C[C@@H]1S[C@H](c2c(F)cccc2Cl)n2c1nc1ccccc12 27.9 µM (inactive)

====

- System: IGROV-1
- PROCEDURE_TEXT: NCI tumour cell line growth inhibition, 48 h
Calls of active or inactive are those of the source. Rule as the data show it: active = GI50 up to about 1.1 µM and inactive = higher.
Please state which outcome applies, choosing from active, inactive

Field: example entries. Status: answers known.
{"COMPOUND": "C[C@@H]1S[C@H](c2c(F)cccc2Cl)n2c1nc1ccccc12", "TARGET_OF_ASSAY": "IGROV-1", "CAT": "inactive"}
{"COMPOUND": "O=c1[c-](-c2ccccc2)[se]c(-c2ccccc2)[n+]1-c1ccccc1", "TARGET_OF_ASSAY": "IGROV-1", "CAT": "inactive"}
{"COMPOUND": "O=C(O)/C(=C/c1ccccc1[N+](=O)[O-])c1ccccc1", "TARGET_OF_ASSAY": "IGROV-1", "CAT": "inactive"}

Which outcome was assigned to CCSc1nnc2c(-c3ccccc3)n[nH]c2n1 in this test? inactive

Which outcome was assigned to CC(=O)NC1CCC(NC(=O)OC(C)(C)C)C(NC(=O)OC(C)(C)C)C1 (configuration not stated) in this test? inactive

Which outcome was assigned to COC(=O)C12OCC34C(CC5C(C)=CC(=O)C(O)C5(C)C3C(O)C1O)OC(=O)C(OC(=O)CC(C)C)C24 (configuration not stated) in this test? active

Which outcome was assigned to CSc1s[s+]c(SC)c1[O-] in this test? inactive

Which outcome was assigned to CC(=O)C(=[N+]=[N-])C(=O)N(C)CCC#N in this test? inactive

Which outcome was assigned to O=C1c2c(ccc3c2CCC3)CC12Cc1ccccc1C2 in this test? inactive

Which outcome was assigned to CC(=O)C1C(c2ccc(N(C)C)cc2)c2cc3c(cc2OC1(C)O)OCO3 (configuration not stated) in this test? inactive

Which outcome was assigned to O=C(Nc1cccc2nsnc12)c1cc2c(cc1Cl)Sc1nccn1S2(=O)=O in this test? inactive
